Listed here are compounds together with their documented z-score.
Biological target: Metabotropic glutamate receptor 8 (Rattus norvegicus) (UniProt P70579)
Sequence (P70579 whole entry, looked up): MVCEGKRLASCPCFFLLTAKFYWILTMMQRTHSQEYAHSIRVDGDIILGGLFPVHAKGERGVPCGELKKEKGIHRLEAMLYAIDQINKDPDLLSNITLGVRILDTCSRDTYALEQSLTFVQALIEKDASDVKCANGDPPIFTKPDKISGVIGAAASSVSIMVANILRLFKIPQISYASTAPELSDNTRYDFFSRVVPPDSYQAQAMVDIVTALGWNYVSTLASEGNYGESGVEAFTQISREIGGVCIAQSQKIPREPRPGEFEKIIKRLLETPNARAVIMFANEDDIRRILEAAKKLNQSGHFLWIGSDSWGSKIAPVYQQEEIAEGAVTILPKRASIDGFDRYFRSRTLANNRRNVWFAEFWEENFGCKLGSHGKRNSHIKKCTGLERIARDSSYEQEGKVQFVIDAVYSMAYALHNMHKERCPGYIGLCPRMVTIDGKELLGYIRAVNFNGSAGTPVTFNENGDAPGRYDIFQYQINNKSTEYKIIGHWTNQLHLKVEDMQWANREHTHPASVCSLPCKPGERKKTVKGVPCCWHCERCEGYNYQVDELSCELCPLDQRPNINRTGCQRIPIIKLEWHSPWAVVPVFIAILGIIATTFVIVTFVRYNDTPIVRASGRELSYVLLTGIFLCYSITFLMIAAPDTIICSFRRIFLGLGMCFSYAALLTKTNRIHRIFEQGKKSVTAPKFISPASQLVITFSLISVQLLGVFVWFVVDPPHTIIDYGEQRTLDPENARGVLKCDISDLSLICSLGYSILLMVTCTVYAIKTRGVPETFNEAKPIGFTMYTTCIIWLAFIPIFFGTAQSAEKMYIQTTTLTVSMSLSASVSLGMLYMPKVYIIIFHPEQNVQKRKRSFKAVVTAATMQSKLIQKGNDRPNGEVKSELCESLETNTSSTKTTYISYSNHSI
Assay: mGluR8 Gi/Go-coupled signaling modulation – cell-based, rat, thallium flux, HTS, primary screen (AID 488969)
Details: HEK293 rat mGluR8, GIRK thallium flux, FluoZin2; at 10 µM; stronger effect = higher value; submaximal glutamate (EC20) added with thallium
The full ranking holds about 110,000 compounds; the median of “z-score” is about -0.1, and the highest 2% start at about 2. The sample as a whole holds a higher share of the highest values than the screen did.
Answer with a bare number; do not write a unit.

See these solved cases before continuing.
>>> df
                                 smiles_str  result_value
0  Cc1ccc(NC(=O)COC(=O)c2sccc2C)cc1S(=O)(=O)N1CCOCC1          1.38
1                 Nc1sccc1C(=O)c1ccc(Cl)cc1        -0.434
2  CCN1CCN(C(=O)C2CCN(C(=O)c3cc4sccc4n3CC)CC2)CC1          2.56
3           O=C(O)C1CCN(C(=O)c2ccccc2Cl)CC1        -0.551
4  Cc1cc(-c2n[nH]c(=S)n2/N=C/C(Cl)=C/c2ccccc2)n[nH]1        -0.527
5  CC(=O)c1cccc(N(CC(=O)Nc2cccnc2)S(C)(=O)=O)c1         0.179
6  O=C(c1cccs1)c1cn(CC(=O)N2CCc3ccccc3C2)c2ccccc12        -0.134
7  COc1cccc(N(CC(=O)NCc2cccnc2)S(C)(=O)=O)c1          3.97
8  CC(=O)c1cccc(NC(=O)CN(c2cccc(F)c2)S(C)(=O)=O)c1        -0.268
9  Cc1cccc(N(CC(=O)Nc2ccc(F)cc2)S(C)(=O)=O)c1         0.171

Exam item: Name the recorded z-score for `COc1cccc(CNC(=O)CN(c2cc(C)cc(C)c2)S(=O)(=O)c2c(C)noc2C)c1` .
Marked response: 2.13

Exam item: Try the compound `CC(/C=N/n1c(-c2cc(C)[nH]n2)n[nH]c1=S)=C\c1ccccc1`
Marked response: -0.302

====

Biological target: Metabotropic glutamate receptor 8 (Rattus norvegicus) (UniProt P70579)
Assay: mGluR8 Gi/Go-coupled signaling modulation – cell-based, rat, thallium flux, HTS, primary screen (AID 488969)
Settings: HEK293 rat mGluR8, GIRK (G protein-gated inwardly rectifying potassium channel) thallium flux, FluoZin2; at 10 µM; stronger effect = higher value; submaximal glutamate (EC20) added with thallium
The full ranking holds about 110,000 compounds; the median of “z-score” is about -0.1, and the highest 2% start at about 2. The full list was thinned out, with the highest values kept by preference.
Outcome: rule met for z-score of at least 0.04; rule not met for anything lower.

>>> df
                                   compound  assigned_label
0  CC(=O)C(/C=N/c1cc(-c2ccc(C)cc2)nn1-c1ccccc1)=C(\C)O    rule not met
1        CCCS(=O)(=O)N1CCC(C(=O)N2CCCC2)CC1    rule not met
2  O=C(NCCN1CCCC1)c1ccc2c(=O)n(CCc3ccccc3)c(=O)[nH]c2c1        rule met
3  Cc1cc(C)c2oc(-c3cccc(NC(=O)c4ccc(F)cc4)c3)nc2c1    rule not met
4        CSc1nc(-c2ccccc2)[nH]c(=S)c1C(C)=O        rule met

Exam item: # bool: z-score of `O=c1[nH]cnc2sc3c(c12)CCN(Cc1ccccc1)C3` >= 0.04
Marked response: rule met

Exam item: Try the compound `O=C(CN1CCN(Cc2ccc3c(c2)OCO3)CC1)Nc1ccc2c(c1)OCCO2`
Marked response: rule met

Exam item: Try the compound `COc1ccc(CCNC(=O)CCC(=O)N2CCN(S(=O)(=O)c3ccc(Cl)cc3)CC2)cc1OC`
Marked response: rule not met

Exam item: Try the compound COc1ccc(C2/C(=C(\O)c3ccc(OC)c(Cl)c3)C(=O)C(=O)N2CCN(C)C)cc1 (configuration not stated)
Marked response: rule not met

Exam item: Try the compound `COc1ccccc1N1CCN(CCCC(=O)c2ccc(F)cc2)CC1`
Marked response: rule not met

Exam item: Try the compound `COc1ccc(-c2csc(NC(=O)CN3C(=O)CCC3=O)n2)cc1OC`
Marked response: rule not met

Exam item: Try the compound `CCOc1ccc(NC(=O)c2cc3cc4ccc(OC)cc4nc3o2)cc1`
Marked response: rule met

Exam item: Try the compound `CCOCCn1c(=NC(=O)c2cc3ccccc3oc2=O)sc2cc(S(N)(=O)=O)ccc21`
Marked response: rule not met

Exam item: Try the compound Cc1ccc(C)c(NC(=S)NC(NC(=O)/C=C/c2ccccc2)C(Cl)(Cl)Cl)c1 (configuration not stated)
Marked response: rule not met
